// data source = patent US8871753B2

# assay target: Recombinant Human Anaplastic Lymphoma Kinase (Homo sapiens, UniProt Q9UM73)
# Construct: purchased Invitrogen, Carlsbad, Calif
# Sequence (Q9UM73 19-1620): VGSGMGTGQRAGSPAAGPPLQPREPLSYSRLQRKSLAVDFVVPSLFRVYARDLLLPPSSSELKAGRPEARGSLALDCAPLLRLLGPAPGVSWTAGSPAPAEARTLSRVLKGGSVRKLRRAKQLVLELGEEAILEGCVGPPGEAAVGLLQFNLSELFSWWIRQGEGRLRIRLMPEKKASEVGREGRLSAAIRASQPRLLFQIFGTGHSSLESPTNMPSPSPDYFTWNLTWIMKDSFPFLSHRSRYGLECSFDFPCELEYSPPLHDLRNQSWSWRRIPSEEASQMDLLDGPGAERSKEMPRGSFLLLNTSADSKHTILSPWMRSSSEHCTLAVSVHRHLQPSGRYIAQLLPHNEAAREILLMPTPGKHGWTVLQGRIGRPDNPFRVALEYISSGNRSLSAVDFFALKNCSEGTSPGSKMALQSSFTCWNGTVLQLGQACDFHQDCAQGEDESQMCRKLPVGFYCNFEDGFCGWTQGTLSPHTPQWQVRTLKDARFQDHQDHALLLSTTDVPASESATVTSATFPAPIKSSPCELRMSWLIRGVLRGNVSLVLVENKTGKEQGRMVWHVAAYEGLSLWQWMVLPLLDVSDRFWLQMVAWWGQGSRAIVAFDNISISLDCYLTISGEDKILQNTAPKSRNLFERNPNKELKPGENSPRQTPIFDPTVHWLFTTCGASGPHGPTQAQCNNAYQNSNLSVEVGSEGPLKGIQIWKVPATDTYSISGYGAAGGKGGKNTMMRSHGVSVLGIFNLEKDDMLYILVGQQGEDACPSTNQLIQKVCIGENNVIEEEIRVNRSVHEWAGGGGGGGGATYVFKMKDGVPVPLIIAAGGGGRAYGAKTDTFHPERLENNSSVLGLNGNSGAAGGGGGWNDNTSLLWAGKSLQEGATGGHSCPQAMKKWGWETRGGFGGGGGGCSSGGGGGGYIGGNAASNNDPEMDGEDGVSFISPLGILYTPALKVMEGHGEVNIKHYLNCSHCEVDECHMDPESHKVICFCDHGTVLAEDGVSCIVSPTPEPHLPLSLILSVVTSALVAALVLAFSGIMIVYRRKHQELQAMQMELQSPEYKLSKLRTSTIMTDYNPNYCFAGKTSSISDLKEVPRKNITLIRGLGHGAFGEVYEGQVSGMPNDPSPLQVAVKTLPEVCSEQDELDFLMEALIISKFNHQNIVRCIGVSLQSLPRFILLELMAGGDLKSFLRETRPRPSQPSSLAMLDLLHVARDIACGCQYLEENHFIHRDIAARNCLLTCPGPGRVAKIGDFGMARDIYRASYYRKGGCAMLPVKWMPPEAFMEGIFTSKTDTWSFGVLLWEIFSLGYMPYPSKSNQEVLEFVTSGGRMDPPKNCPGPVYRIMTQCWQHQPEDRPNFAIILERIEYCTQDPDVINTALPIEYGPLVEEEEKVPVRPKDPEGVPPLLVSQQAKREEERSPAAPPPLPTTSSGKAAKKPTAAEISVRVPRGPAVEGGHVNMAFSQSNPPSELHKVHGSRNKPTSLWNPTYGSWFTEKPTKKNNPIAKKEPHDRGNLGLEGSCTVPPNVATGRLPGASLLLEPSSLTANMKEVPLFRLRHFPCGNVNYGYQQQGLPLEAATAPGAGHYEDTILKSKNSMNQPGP
# experiment: ALK HTRF kinase assay
# Assay type: biochemical
# protocol conditions: compound at 500 nM or 1 mM; 90 μM ATP
Structures can show the parent of a compound that is named as a salt.
readout: ALK % of inhibition at a concentration of 500 nM or 1 mM (%)
Unit % implied. Number only.

Use the examples below as a reference point.
O=C(CC1CCN(C(=O)c2cnccn2)CC1)Nc1ccc2cc1CCc1cccc(c1)Nc1ncc(Cl)c(n1)N2 [Example A87, bis(trifluoroacetate)]	31
Cc1cc(C(=O)N2CCCC(C(=O)Nc3ccc4cc3CCc3cccc(c3)Nc3ncc(Cl)c(n3)N4)C2)no1 (stereo not drawn) [Example A121, trifluoroacetate]	41

Could you now look at the following molecule, please?
Enquiry: Please give the documented ALK % of inhibition at a concentration of 500 nM or 1 mM of Cc1oncc1S(=O)(=O)N1CCC(CC(=O)Nc2ccc3cc2CCc2cncc(c2)Nc2ncc(Cl)c(n2)N3)CC1 [Example A200, bis(trifluoroacetate)]
Return: 25
